Counter-ions that a name gives are not always drawn.
Provide the reported melting point of each item.

Observe how each entry below is paired with its result.
>>> assay_result("CNC(=O)c1cc2cc3c(cc2c(-c2ccc4c(c2)OCO4)c1CO)OCO3 [Example 7]")
"222 to 224 °C"
>>> assay_result("CNC(=O)c1cc(-c2ccc(F)cc2)c2c3c(ccc2n1)OCO3 [Example 46]")
"233 to 235 °C"
>>> assay_result("CN(C)C(=O)c1cc(-c2ccc3c(c2)OCO3)c2c3c(ccc2c1)OCO3 [Example 16]")
"160 to 161 °C"
>>> assay_result("NC(=O)c1cc(-c2ccc(C(F)(F)F)cc2)c2c3c(ccc2c1)OCO3 [Example 12]")
"207 to 209 °C"
>>> assay_result("CNC(=O)c1cc2ccc3c(c2c(-c2ccc(Cl)cc2)c1CO)OCO3 [Example 3]")
"202 to 204 °C"

Okay, here is my list. What is melting point for each of these?
1. NC(=O)c1cc(-c2ccc(OC(F)(F)F)cc2)c2c3c(ccc2c1)OCO3 [Example 25]
2. CNC(=O)c1cc2ccc3c(c2c(-c2ccc4ccccc4c2)c1CO)OCO3 [Example 4]
3. CN(C)CCCNC(=O)c1cc(-c2ccc3c(c2)OCO3)c2c3c(ccc2c1)OCO3 (as salt: hydrochloride) [Example 19]

["188 to 190 °C", "207 to 210 °C", "233 to 240 °C"]

----------
Provide the reported melting point of each item.

Observe how each entry below is paired with its result.
>>> assay_result("CNC(=O)c1cc2ccc3c(c2c(-c2ccc(OC)cc2)c1CO)OCO3")
"187 to 190 °C"
>>> assay_result("CNC(=O)c1nc2ccc3c(c2c(-c2ccc4c(c2)OCO4)c1C)OCO3")
"141 to 146 °C"
>>> assay_result("CNC(=O)c1nc2ccc(C)cc2c(-c2ccc(F)cc2F)c1CO")
"140 to 141 °C"
>>> assay_result("NC(=O)c1cc(-c2ccc3c(c2)OCO3)c2c3c(ccc2c1)OCO3")
"267 to 269 °C"
>>> assay_result("CNC(=O)c1cc(-c2ccc3c(c2)OCO3)c2c3c(ccc2c1)OCO3")
"206 to 208 °C"

Okay, here is my list. What is melting point for each of these?
1. O=C(c1cc(-c2ccc(F)cc2)c2c3c(ccc2n1)OCO3)N1CCN(Cc2ccccc2)CC1
2. COc1ccc(-c2cc(C(N)=O)cc3ccc4c(c23)OCO4)cc1
3. CNC(=O)c1nc2ccc(C)cc2c(-c2ccccc2)c1CO
4. CNC(=O)c1cc2ccc3c(c2c(-c2ccc(OC(F)(F)F)cc2)c1CO)OCO3
5. CNC(=O)c1cc2ccc3c(c2c(-c2ccc4c(c2)OCO4)c1CO)OCO3
6. Cc1c(C(N)=O)cc(-c2ccc3c(c2)OCO3)c2c3c(ccc12)OCO3
7. CNC(=O)c1cc2ccc3c(c2c(-c2ccc(C)cc2)c1CO)OCO3

1. 147 to 148 °C
2. 187 to 189 °C
3. 136 to 137 °C
4. 195 to 197 °C
5. 233 to 235 °C
6. 237 to 239 °C
7. 210 to 212 °C

The value of melting point measured for the compound `CNC(=O)c1cc2ccc3c(c2c(-c2ccc(F)cc2)c1CO)OCO3` turned out to be 210 to 213 °C
